- Assay system: Steroidogenic factor 1 (Homo sapiens, UniProt Q13285)
- Sequence (Q13285 whole entry, the tested form may be a part): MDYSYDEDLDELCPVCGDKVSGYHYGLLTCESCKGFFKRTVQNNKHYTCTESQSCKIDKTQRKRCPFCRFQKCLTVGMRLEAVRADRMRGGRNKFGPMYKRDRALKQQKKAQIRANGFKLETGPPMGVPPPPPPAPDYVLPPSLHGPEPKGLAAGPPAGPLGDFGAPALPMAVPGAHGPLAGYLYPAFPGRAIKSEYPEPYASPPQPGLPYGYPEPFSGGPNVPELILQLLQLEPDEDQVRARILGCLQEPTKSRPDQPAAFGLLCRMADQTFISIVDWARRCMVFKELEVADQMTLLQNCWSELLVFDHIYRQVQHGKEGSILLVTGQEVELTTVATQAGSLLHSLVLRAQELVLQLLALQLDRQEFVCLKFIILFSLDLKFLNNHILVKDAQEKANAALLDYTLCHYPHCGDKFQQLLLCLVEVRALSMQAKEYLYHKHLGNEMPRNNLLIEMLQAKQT
- Test details: inhibition of SF-1 LBD-driven luciferase – cell-based, CHO-K1, Gal4-SF-1 LBD, luciferase luminescence, counter-screen for RORA inhibitor project, dose response (AID 611)
Measured parameter: IC50 (µM)

Solved entries:
> print(dat)
                                 mol.smiles  result.unit  endpoint.value
1       O=S1(=O)Nc2c(ccc3cccnc23)-c2ccccc21           µM            4.43
2    Cc1csc(SCC(=O)c2cc(C)n(Cc3cccs3)c2C)n1           µM            9.88
3  O=S1(=O)C=C(Sc2nc3cc(Cl)ccc3o2)c2ccccc21           µM            5.99
4       CCCCS(=O)(=O)/C=C\C=C/S(=O)(=O)CCCC           µM            1.64
5            O=c1c2ccccc2cnn1-c1nc2ccccc2s1           µM           0.728

A. COc1ccc(CCNc2ncnc3c2oc2ccccc23)cc1OC
B. COc1ccc(CCNc2nnc(Sc3nnnn3-c3ccccc3)s2)cc1OC
Q: A or B : whose IC50 is greater? Please reply using the label of the selected record.
Ans: B

----------
- Assay system: Steroidogenic factor 1 (Homo sapiens)
- Test details: inhibition of SF-1 LBD-driven luciferase – cell-based, CHO-K1, Gal4-SF-1 LBD, luciferase luminescence, counter-screen for RORA inhibitor project, dose response (AID 611)
pIC50: −log10 of the molar value.
Measured parameter: pIC50

> print(dat)
                           compound  endpoint.value
1  O=C(NCCOc1ccccc1)c1ccc2c(c1)OCO2            5.01

P. O=C(c1ccccc1)C(CCC(CN1CCOCC1)C(=O)c1ccccc1)CN1CCOCC1 (centres undefined)
Q. O=C(Nc1nc(-c2ccccn2)cs1)c1ccc(Cl)s1
R. O=c1cc(N2CCN(c3cccc(Cl)c3)CC2)[nH]c(=O)n1C1CCCCC1
Q: Let's sort these by pIC50, smallest first. Go ahead? Order the labels as requested and list them.
Ans: P, Q, R
(P: 4.74, Q: 5.40, R: 6.36)

a. Cc1nnc(SC(=O)N2c3ccccc3Sc3ccccc32)s1
b. Cc1cccc(NC(=O)CSc2nnc(-c3cc(C)n(-c4ccccc4)c3C)o2)c1C
Q: For the pair a and b , which entry has the numerically smaller recorded pIC50? Answer by quoting the chosen item's label.
Ans: a
(a: 5.22, b: 5.48)

----------
// reported pIC50 per item
- Assay system: Steroidogenic factor 1 (Homo sapiens, UniProt Q13285)
- Test details: inhibition of SF-1 LBD-driven luciferase – cell-based, CHO-K1, Gal4-SF-1 LBD, luciferase luminescence, counter-screen for RORA inhibitor project, dose response (AID 611)
pIC50: −log10 of the molar value.

Answered examples (2):
> print(dat)
                              mol.smiles  measured.parameter  endpoint.value
1         Cn1c(-c2ccco2)nc2cc3ccccc3cc21               pIC50          < 5.44
2  Cc1ccc(Nc2cc(C)nn2-c2nc(C)cc(O)n2)cc1               pIC50            5.38

Okay, now this compound:
Q: Please report the measured pIC50 for `COc1ccc(-c2cc3nc4n(c(=O)c3s2)CCC4)cc1` tested on Steroidogenic factor 1 (Homo sapiens, UniProt Q13285).
Ans: < 5.44

----------
- Assay system: Steroidogenic factor 1 (Homo sapiens)
- Test details: inhibition of SF-1 LBD-driven luciferase – cell-based, CHO-K1, Gal4-SF-1 LBD, luciferase luminescence, counter-screen for RORA inhibitor project, dose response (AID 611)
pIC50: −log10 of the molar value.
Measured parameter: pIC50

Reference set, count: 5
> print(dat)
                                   compound  endpoint.value
1  O=S1(=O)C=C(Sc2nnc(-c3ccccc3)o2)c2ccccc21            5.22
2  COc1ccc(-c2nc(CSCC(=O)NCc3ccco3)c(C)o2)cc1 [MLS000089353]            5.15
3             O=C(CC=Nc1ccccn1)c1ccc(Cl)cc1            5.31
4           O=C(Nc1nc2ccccc2[nH]1)c1ccccc1F            5.72
5   c1ccc2c(c1)CCN(c1nc3cc4c(cc3s1)OCCO4)C2            5.36

a. Cc1cc(N2CCN(c3nc4ccccc4s3)CC2)n2ncnc2n1
b. Cc1ccc(-c2cc3c(nn2)-c2ccccc2C3=O)cc1
c. CC(=O)c1c(C)[nH]c(C(=O)Nc2ccc(C)cn2)c1C [SMR000026816]
d. CC1CCN(c2nc3ccc(C(=O)O)cc3s2)CC1
Q: Arrange by pIC50, high to low. Sort the labels as requested; that list is your answer.
Ans: d, b, c, a

1. Cc1cnc(NC(=O)COc2ccccc2Cl)s1
2. O=NC1c2cc(S(=O)(=O)N3CCCCC3)ccc2-c2ccc(S(=O)(=O)N3CCCCC3)cc21
3. Cc1ccc(-c2nnc(SCC(=O)Nc3ccccc3F)o2)cc1 [MLS000114725]
4. CCOc1ccc(C2=Nn3c(nnc3-c3ccccc3OC)SC2)cc1
5. Clc1ccc(-n2ncc3c(N4CCCCCC4)ncnc32)cc1
Q: Hey, quick one: sort these by pIC50, largest value first please. Field: ranking. Enter the labels in the order requested.
Ans: 4, 5, 2, 1, 3
(4: 6.41, 5: 6.07, 2: 5.67, 1: 5.25, 3: 5.00)

A. COc1ccc(C(=O)Nn2c(SCC(=O)NCc3ccco3)nc3ccccc3c2=O)cc1 [MLS000097349]
B. CCC(NC(=O)Nc1nnc(C(F)(F)F)s1)(C(F)(F)F)C(F)(F)F
C. CC1CCCCC1NS(=O)(=O)c1ccc(S(=O)(=O)NCc2ccncc2)cc1 (stereo unspecified)
D. c1ccc(-c2noc(-c3ccc4ccccc4c3)n2)nc1
Q: Please list these in order of increasing pIC50. Thank you! Write the labels out in the order the request specifies.
Ans: C, A, B, D

----------
- Assay system: UniProt Q13285
- Test details: inhibition of SF-1 LBD-driven luciferase – cell-based, CHO-K1, Gal4-SF-1 LBD, luciferase luminescence, counter-screen for RORA inhibitor project, dose response (AID 611)
Measured parameter: IC50 (µM)

> print(dat)
                                   molecule  measured.parameter  endpoint.value
1  CCN(C(=O)c1ccc(C(C)(C)C)cc1)c1nnc(Cn2nnc3ccccc32)s1 [MLS000072751]                IC50            7.71
2  Cc1ccc(-c2csc3ncnc(Sc4nnc(CN5CCCCCC5=O)o4)c23)cc1                IC50            7.12
3  CCOC(=O)N1CCC(NC(=O)C2CCCN(Cc3nc(-c4cccc(Cl)c4)oc3C)C2)CC1 (configuration not stated)                IC50            6.81

a. CCCCNc1cc(C)nc(NCc2ccccc2)n1
b. CS(=O)(=O)c1nc(-c2cccs2)cc(C(F)(F)F)n1 [MLS000044645]
Q: # argmax over IC50 for candidates a and b Reply with the label of the item you choose.
Ans: a
(a: 9.37 µM, b: 6.41 µM)

----------
- Assay system: Steroidogenic factor 1 (Homo sapiens)
- Test details: inhibition of SF-1 LBD-driven luciferase – cell-based, CHO-K1, Gal4-SF-1 LBD, luciferase luminescence, counter-screen for RORA inhibitor project, dose response (AID 611)
Measured parameter: IC50 (µM)

> print(dat)
                                 mol.smiles  endpoint.value
1         Cc1oc(-c2ccc3c(c2)OCCO3)cc1C(=O)O            3.06
2  C[C@@]1(CO)[C@H](O)CC[C@@]2(C)[C@H]1CC[C@H]1C[C@@H]3C[C@@]12CC[C@]3(O)CO           0.519

A. COc1ccc(C=Nn2nnc3ccccc32)cc1
B. O=C(CSc1nnnn1-c1ccccc1)Nc1nsc(-c2ccc(Cl)cc2)n1
Q: From the recorded data, which exceeds the other in IC50: A or B ? # answer = label of selected item
Ans: B

----------
- Assay system: Steroidogenic factor 1 (Homo sapiens, UniProt Q13285)
- Test details: inhibition of SF-1 LBD-driven luciferase – cell-based, CHO-K1, Gal4-SF-1 LBD, luciferase luminescence, counter-screen for RORA inhibitor project, dose response (AID 611)
pIC50: −log10 of the molar value.
Measured parameter: pIC50

Example entries begin here.
> print(dat)
                                 mol.smiles  measured.parameter  endpoint.value
1  Cn1nc(C(C)(C)C)cc1C(=O)NCc1ccc(N2CCCC2=O)cc1               pIC50            5.50
2    CCOc1ccc(OCc2cccc(C(=O)N3CCOCC3)c2)cc1               pIC50            5.36
3  Cc1ccc(NC(=O)Cc2nn(C)c(=O)c3ccccc23)cc1F               pIC50            5.41

1. COc1ccc(OC)c(NC(=O)CSc2nnnn2-c2ccc3c(c2)OCO3)c1
2. CCCc1ccc(-c2ccc(F)c(N)c2)nc1
Q: Given 1 and given 2 , which shows the smaller recorded pIC50? Give the label under which the chosen entry appears.
Ans: 2
(2: 5.22, 1: 5.57)

Reference source: BindingDB's records for doi:10.7270/Q2PR7TCX
